B1: Pistol ribozyme (parent)
chain: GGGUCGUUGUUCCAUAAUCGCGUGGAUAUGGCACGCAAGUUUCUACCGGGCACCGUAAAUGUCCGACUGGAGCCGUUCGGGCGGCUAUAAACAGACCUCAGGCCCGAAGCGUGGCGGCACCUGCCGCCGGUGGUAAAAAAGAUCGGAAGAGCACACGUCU

Variants of: B1
Assay: aptazyme ON/OFF ratio, guanine; higher = stronger switching; co-transcriptional cleavage with and without guanine
measurement name: aptazyme ON/OFF ratio
Answers are plain numbers.

Known aptazyme ON/OFF ratio results, listed for orientation:
Tell us which aptazyme ON/OFF ratio value is on record for U7G U8A G9U U10A U11A C12U C13G 1.07

Tell us which aptazyme ON/OFF ratio value is on record for U7C U8A G9C U11A C12U C13A 1.16

Tell us which aptazyme ON/OFF ratio value is on record for G9C U10C U11C C12A C13U 0.997

Tell us which aptazyme ON/OFF ratio value is on record for U7A U8A G9A U10G U11A C12U 1.03

Tell us which aptazyme ON/OFF ratio value is on record for U7A U8C G9C U10C U11C C12U 0.94

Tell us which aptazyme ON/OFF ratio value is on record for U7C U8G C12U C13G 1.18

Give one value of aptazyme ON/OFF ratio per listed variant.
1. U7A G9A U10G U11G C13G
2. U11C C12G C13A
3. U7G U8C G9C U10C U11G C12U C13G
4. U8A G9C C12U C13U
5. U7A G9C U10C U11G C12U C13G
6. U8C G9C U10G C12U C13G

[1.25, 1.46, 1.08, 1.2, 1.04, 1.06]

Give one value of aptazyme ON/OFF ratio per listed variant.
1. U7A G9U U11A C13G
2. U7A U8C U10C U11G C13A
3. G9U U10A C13G
4. U7G G9A U10C U11A C12A C13G
5. U7C U8C G9C U10C U11G C12G C13A
6. U8C G9A U10C U11G C12U C13U
7. U10C U11C C12G C13U
8. U7G U8C G9C U11A C13A

1.08
1.2
1.27
1.09
1.08
1.51
1.11
1.09

Give one value of aptazyme ON/OFF ratio per listed variant.
1. U8A U10A U11C C12A C13U
2. U7A U8G G9U U10G U11C C13A
3. U7G U8A G9C U10C U11A C12U C13U
4. U7G U8C G9A U10G U11A

[1.19, 1.12, 1.03, 1.07]

Give one value of aptazyme ON/OFF ratio per listed variant.
1. U7C U8G G9C U10C U11C C12A C13G
2. U7C U8C G9A U11A C12G C13G
3. G9A U11A C12U C13A
4. U7C U8A G9A U10C C12A C13U

1: 1.04; 2: 1.17; 3: 1.37; 4: 1.24

Give one value of aptazyme ON/OFF ratio per listed variant.
1. U7A U8C G9U U10G C13A
2. U7C G9C U10A U11G C12G C13A
3. U7C G9C C12G
4. U7A U8A G9U U11G C12U

1.34
1.1
1.04
1.31

Give one value of aptazyme ON/OFF ratio per listed variant.
1. G9A C12G C13A
2. U7C U8A G9A U10C U11G
3. U8C G9A U10A U11C C12G
4. U8G G9A U10A U11A C12G
5. U8A G9A C12G
6. U7C G9A U10G U11G C12U C13G
7. U7C U8C G9C U10A U11A C12A C13A

1: 1.3; 2: 1.32; 3: 1.29; 4: 1.28; 5: 1.41; 6: 1.05; 7: 1.09

Give one value of aptazyme ON/OFF ratio per listed variant.
1. U8G G9A U10A U11C C12G C13G
2. U7G G9A U10A U11A C12A

1. 1.21
2. 1.1

Give one value of aptazyme ON/OFF ratio per listed variant.
1. U7A U8G G9C U10G U11G
2. U7G U8C G9U U11C C12U
3. U7G G9C U11A C12A C13U
4. U7G U8A G9U U10G U11C C12U C13G
5. U7A U8A G9C U10G C12A C13G
6. U7G U8A G9A U10C C12U

1.25
2.13
1.52
1.17
1.09
1.09
